B1: HDV Ribozyme (parent)
chain: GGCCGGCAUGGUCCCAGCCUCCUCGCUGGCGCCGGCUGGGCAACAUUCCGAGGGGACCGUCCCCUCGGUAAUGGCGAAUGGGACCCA

variants of: B1; experiment: self-cleavage, relative activity (ratio to wild type); higher = more cleavage; co-transcriptional

>  <mutantDesignation>
C57A G81C

>  <self-cleavage>
0.181

$$$$
>  <mutantDesignation>
G40A A78U

>  <self-cleavage>
0.404

$$$$
>  <mutantDesignation>
U47G A78U

>  <self-cleavage>
0.196

$$$$
>  <mutantDesignation>
G29A G67A

>  <self-cleavage>
0.0791

$$$$
>  <mutantDesignation>
G1U C36U

>  <self-cleavage>
0.318

$$$$
